Assay: recombinant barcode read abundance after kanamycin selection (control-corrected) (log10(CPM+1)); higher = more efficient recombination; sequences stand for … in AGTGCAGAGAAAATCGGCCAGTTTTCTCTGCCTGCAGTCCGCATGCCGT…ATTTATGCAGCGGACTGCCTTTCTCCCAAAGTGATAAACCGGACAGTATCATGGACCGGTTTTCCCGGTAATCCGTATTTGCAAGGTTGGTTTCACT; site = the 11-nt target
Given measured recombinant barcode read abundance (log10), output T if it is greater than or equal to 0.1 and F if not.

Field: example entries. Status: answers known.
Could you please find out whether GAGTCCAAATGGGTTCTAACCTGTTGCGTTT [GAGTCCACTAC_LTGcore_AA_RTGcore_AA] (site GAGTCCACTAC) (LTG core: AA, RTG core: AA) has recombinant barcode read abundance (log10) that meets 0.1 or exceeds it?
F

Is it the case that GCGCGACCATGGGTTCTAACCTGTTGCTTTG [GCGCGACCTAA_LTGcore_CA_RTGcore_CA] (site GCGCGACCTAA) (LTG core: CA, RTG core: CA) has recombinant barcode read abundance (log10) reaching or exceeding 0.1?
T

recombinant barcode read abundance (log10) >= 0.1 for AGGCGGGTCTGGGTTCTAACCTGTTGCGGAG [AGGCGGGCTCC_LTGcore_TC_RTGcore_CT] (site AGGCGGGCTCC) (LTG core: TC, RTG core: CT) ?
T

Say whether GAGTCCTTCTGGGTTCTAACCTGTTGCCTAG [GAGTCCTCTAG_LTGcore_TC_RTGcore_CT] (site GAGTCCTCTAG) (LTG core: TC, RTG core: CT) shows recombinant barcode read abundance (log10) of 0.1 or more.
F

***
Test whether the sequence ATGCTTTTTTGGGTTCTAACCTGTTGCCTAG [ATGCTTTCTAG_LTGcore_TT_RTGcore_CT] (site ATGCTTTCTAG) (LTG core: TT, RTG core: CT) records recombinant barcode read abundance (log10) of 0.1 or higher.
T

----------
I'd be grateful if you could share measured recombinant UMI read abundance (log10) for these entries.
Assay: recombinant UMI read abundance after kanamycin selection (control-corrected) (log10(CPM+1)); higher = more efficient recombination; extreme values may be limits of the assay; sequences stand for … in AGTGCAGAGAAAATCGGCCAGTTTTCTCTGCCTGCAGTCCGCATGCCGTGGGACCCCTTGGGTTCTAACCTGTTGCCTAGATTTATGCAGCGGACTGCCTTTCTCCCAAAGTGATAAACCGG…AGGTTGGTTTCACT; site = the 11-nt donor
Answers are plain numbers.

Worked set:
Respond only with recombinant UMI read abundance (log10) recorded for GGACCAACATGGACCGGTTTTCCCGGTAATCCGTATTTGTA (site GGCCCAACTTA)
0.00566

Provide one value: measured recombinant UMI read abundance (log10) of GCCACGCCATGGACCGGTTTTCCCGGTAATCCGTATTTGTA (site GCCCCGCCTTA)
0.00659

Recall and state the measured recombinant UMI read abundance (log10) for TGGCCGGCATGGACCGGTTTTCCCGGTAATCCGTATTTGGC (site TGTCCGGCTGC) .
0

Could you report recombinant UMI read abundance (log10) for every entry in the following list?
1. TTTGAGGCATGGACCGGTTTTCCCGGTAATCCGTATTTGCT (site TTTGTGGCTAG)
2. ATCGATTCATGGACCGGTTTTCCCGGTAATCCGTATTTGAG (site ATCGATTCTCT)
3. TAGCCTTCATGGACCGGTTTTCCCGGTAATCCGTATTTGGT (site TAGCCTTCTAC)
4. GGTGTGTCATGGACCGGTTTTCCCGGTAATCCGTATTTGTG (site GGTGTGTCTCA)
5. CTTGCTTCATGGACCGGTTTTCCCGGTAATCCGTATTTGAT (site CTTGCTTCTAT)

[0.0143, 2.41, 0.00564, 1.16, 0.0131]

----------
Assay: recombinant UMI read abundance after kanamycin selection (control-corrected) (log10(CPM+1)); higher = more efficient recombination; extreme values may be limits of the assay; sequences stand for … in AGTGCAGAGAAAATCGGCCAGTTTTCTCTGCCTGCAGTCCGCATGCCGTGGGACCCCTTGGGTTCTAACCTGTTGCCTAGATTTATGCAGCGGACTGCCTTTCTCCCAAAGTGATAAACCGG…AGGTTGGTTTCACT; site = the 11-nt donor
Assign recombinant UMI read abundance (log10) to each entry below.
Numbers only.

Fill in reported recombinant UMI read abundance (log10) for this entry: CGGACAACATGGACCGGTTTTCCCGGTAATCCGTATTTGCT (site CGGACATCTAG)
2.39

Supply recorded recombinant UMI read abundance (log10) for GATCTAACATGGACCGGTTTTCCCGGTAATCCGTATTTGTC (site GATCTAACTGA) here.
0

Please give the documented recombinant UMI read abundance (log10) of CCCCACGCATGGACCGGTTTTCCCGGTAATCCGTATTTGTA (site CCCCACTCTTA)
0.923

Provide only the value of recorded recombinant UMI read abundance (log10) for TAATTCGCATGGACCGGTTTTCCCGGTAATCCGTATTTGTG (site TAATTCGCTCA)
0.0276

Please give the documented recombinant UMI read abundance (log10) of CGTTTGGCATGGACCGGTTTTCCCGGTAATCCGTATTTGAT (site CGTTTGGCTAT)
2.22

I need recombinant UMI read abundance (log10) for every entry listed below, if you could help.
1. GTTGTTCCATGGACCGGTTTTCCCGGTAATCCGTATTTGGA (site GTTGTTCCTCC)
2. ACTAGCGCATGGACCGGTTTTCCCGGTAATCCGTATTTGGT (site ACTAGTGCTAC)
3. CATCTGACATGGACCGGTTTTCCCGGTAATCCGTATTTGCG (site CATCTGACTCG)
4. ATGCATGCATGGACCGGTTTTCCCGGTAATCCGTATTTGGT (site TTGCATGCTAC)

[0.00995, 0.00815, 1.45, 0.601]

----------
Assay: recombinant UMI read abundance after kanamycin selection (control-corrected) (log10(CPM+1)); higher = more efficient recombination; extreme values may be limits of the assay; sequences stand for … in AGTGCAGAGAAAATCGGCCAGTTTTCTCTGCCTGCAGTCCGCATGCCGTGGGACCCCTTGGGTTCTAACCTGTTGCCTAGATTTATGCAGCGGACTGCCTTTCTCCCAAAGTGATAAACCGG…AGGTTGGTTTCACT; site = the 11-nt donor
If the reported recombinant UMI read abundance (log10) equals or exceeds 0.006, assign 1 (yes). If not, assign 0 (no).

Could you please find out whether GCGTTGACATGGACCGGTTTTCCCGGTAATCCGTATTTGCA (site GCGTTGACTTG) has recombinant UMI read abundance (log10) that meets 0.006 or exceeds it?
1 (yes)

Does the sequence ATGTAGCCATGGACCGGTTTTCCCGGTAATCCGTATTTGGC (site ATGTAGCCTGC) have recorded recombinant UMI read abundance (log10) that is 0.006 or more?
1 (yes)

Tell me whether recombinant UMI read abundance (log10) is at least 0.006 here: CCGCTACCATGGACCGGTTTTCCCGGTAATCCGTATTTGCT (site CTGCTACCTAG)
0 (no)

# check: recombinant UMI read abundance (log10) of CCTAATCCATGGACCGGTTTTCCCGGTAATCCGTATTTGGC (site CCTAATGCTGC) is greater than or equal to 0.006
0 (no)

Could you please find out whether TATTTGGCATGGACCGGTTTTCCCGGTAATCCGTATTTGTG (site TATTTGCCTCA) has recombinant UMI read abundance (log10) that meets 0.006 or exceeds it?
1 (yes)

Next item in the queue.
Please tell me: is the sequence AGAGAGACATGGACCGGTTTTCCCGGTAATCCGTATTTGCA (site AGAGAGACTTG) at or over 0.006 in terms of recombinant UMI read abundance (log10)?
1 (yes)

----------
Assay: recombinant UMI read abundance after kanamycin selection (control-corrected) (log10(CPM+1)); higher = more efficient recombination; extreme values may be limits of the assay; sequences stand for … in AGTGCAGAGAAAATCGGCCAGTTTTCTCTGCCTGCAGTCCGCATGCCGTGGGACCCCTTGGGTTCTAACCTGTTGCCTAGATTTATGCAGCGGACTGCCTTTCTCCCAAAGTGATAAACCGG…AGGTTGGTTTCACT; site = the 11-nt donor
For each record, write down the corresponding recombinant UMI read abundance (log10).
Numbers only.

Answered examples (3):
Please report the measured recombinant UMI read abundance (log10) for CGTTAGGCATGGACCGGTTTTCCCGGTAATCCGTATTTGCT (site CGTTCGGCTAG)
0.00474

Input GTGCTGCCATGGACCGGTTTTCCCGGTAATCCGTATTTGTG (site GTGCTGCCTCA) , output reported recombinant UMI read abundance (log10).
0.251

Using known records, supply recombinant UMI read abundance (log10) for GCTCGTACATGGACCGGTTTTCCCGGTAATCCGTATTTGAT (site GCTCGTACTAT)
1.1

For the 5 sequences below, give their recombinant UMI read abundance (log10) values.
1. AACCTTTCATGGACCGGTTTTCCCGGTAATCCGTATTTGAC (site ATCCTTTCTGT)
2. GAGGATTCATGGACCGGTTTTCCCGGTAATCCGTATTTGTT (site GAGGATTCTAA)
3. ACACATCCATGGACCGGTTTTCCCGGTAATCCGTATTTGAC (site ACACATACTGT)
4. TCCTAGCCATGGACCGGTTTTCCCGGTAATCCGTATTTGCC (site TCCTAGCCTGG)
5. TGCTAAGCATGGACCGGTTTTCCCGGTAATCCGTATTTGGT (site TGCTACGCTAC)

1: 0; 2: 2.83; 3: 0.457; 4: 0; 5: 0

Please report the measured recombinant UMI read abundance (log10) for TTACCTTCATGGACCGGTTTTCCCGGTAATCCGTATTTGTC (site TTACCTTCTGA)
0.519
